Measured values drawn from PubChem BioAssay (NCI) for this set.

System: DU-145 prostate
Assay: NCI tumour cell line growth inhibition, 48 h
Measured TGI of individual entries
Only the number, expressed in µM, is required.

compound	system	reported-endpoint	value-unit	number
O=C(Nc1ccccc1O)c1ccc(CNc2ccnc(C(F)(F)F)c2)cc1	DU-145 prostate	TGI	µM	19.4

Please look at the following compound next.
Report TGI for COC1C(O)C(C)OC(OC2C(Oc3cccc4c(O)c5c(=O)oc6ccc(C)c7c(=O)oc(c34)c5c67)OC(C)C(O)C2O)C1O (stereo not given) please.
53.6

* * *

Test system: HCT-15 colon
Test: NCI tumour cell line growth inhibition, 48 h
Recorded measurements of TGI, one per entry

Here's what some known entries look like.
molecule	result
CCn1cc(-c2ccnc3[nH]ccc23)c(-c2cccc(NC(=O)Nc3ccc(OCc4ccccc4)cc3)c2)n1	> 25 µM
CCN1C2=NCCN2S(=O)(=O)c2ccccc21	> 100 µM
O=C(CCCNc1nc(-c2ccccc2)cs1)c1cccs1	> 100 µM
COc1ccc2c(c1)/C(=C\c1c(C)nc3sc(C)cn13)C(=O)N2	74.6 µM
CCOC(=O)C(C(=O)c1ccccc1C(=O)OC)=P(c1ccccc1)(c1ccccc1)c1ccccc1	> 10 µM
O=C(O)c1ccc(S(=O)(=O)Nc2ccc3oc4c(c3c2)C(=O)CCC4)cc1	> 100 µM
CN(C)CCSc1cccc(-c2cc(-c3cccc(SCCN(C)C)c3)nc(SCCN(C)C)n2)c1	4.67 µM
O=C(/C=C1\C[C@H]2C=Nc3ccccc3C(=O)N2C1)NCCCCNC(=O)/C=C1\C[C@H]2C=Nc3ccccc3C(=O)N2C1	27.7 µM
COc1cc(/C=C2/SC(c3ccccc3)N(c3ccccc3)C2=O)cc(OC)c1OC (stereo unspecified)	> 100 µM
c1ccc(P(CCP(c2ccccn2)c2ccccn2)c2ccccc2)cc1	> 100 µM

Fill blank: measured TGI of the molecule CN(C)CC1COC2Cc3ccccc3C1O2 (stereo unspecified) is ____.
> 100 µM

So what does the record say about TGI for Cc1cccc(CC(Cc2c(C)cccc2C(=O)O)C(=O)O)c1 (stereo unspecified) ?
> 100 µM

Look up TGI: CCOC(=O)C(=O)Nc1ccc(Cl)cc1C
> 100 µM

Looking for the measured TGI of O=C(C[n+]1ccccc1)N/N=C(\Cc1nc2ccc([N+](=O)[O-])cc2[nH]c1=O)C(=O)Nc1cc(Cl)c(Cl)cc1Cl , can you help?
> 100 µM

* * *

Each entry below lists one item and its recorded TGI value.
Tested on: HCT-116 colon
Test: NCI tumour cell line growth inhibition, 48 h

compound	TGI
Cc1[nH]c2ccccc2c1-c1cc(-c2cc(-c3c(C)[nH]c4ccccc34)nc(N)n2)nc(N)n1	> 100 µM
O=C(CC1(O)C(=O)Nc2ccccc21)c1ccco1 (stereo not given)	> 100 µM
Cc1oc(N)c(S(=O)(=O)c2ccc(Cl)cc2)c1C	> 100 µM
O=C(O)CCC/C=C\C[C@H]1C=CC(=O)/C1=C/C[C@@H](O)CCc1cccc(C(F)(F)F)c1	3.17 µM

Endpoint output: TGI of CC(=O)N1c2ccccc2NC2=C(C(=O)N(Cc3ccccc3)C2(C)C)C1c1ccco1 (stereo not given) . Value?
> 25 µM

* * *

Recorded measurements of TGI, one per entry
Test system: MDA-N
Experiment: NCI tumour cell line growth inhibition, 48 h

Examples with answers:
compound	TGI
O=[N+]([O-])/C=C/c1cc2ccccc2[nH]1	12.1 µM
CCCCSC1=N/C(=C\c2ccc(N(C)C)cc2)C(NN)=N1	> 100 µM
O=C(CCCNc1nc(-c2ccccc2)cs1)c1cccs1	> 100 µM

Please give the measured TGI for this compound: CC(=O)NNc1nc(C)c(C(/C=C/c2ccc([N+](=O)[O-])cc2)=N/NC(N)=S)s1
> 100 µM

Recorded TGI of O=C(Nc1c(C(F)(F)F)cc(-c2ccccc2)[nH]c1=O)N1CCOCC1 , please.
> 100 µM

Data request, read-out TGI, for Cc1cc(N=Nc2c(O)ccc3ccccc23)ccc1N=Nc1cccc([N+](C)(C)C)c1
> 100 µM
